src = ChEMBL document CHEMBL1629529

- ASSAY EXPLANATION: Selectivity index, ratio of CC50 for human TZM-bl cells to EC50 for HIV1 NL4-3
- Assay type: toxicity, cell-based
- CONDITION DESCRIPTION: TZM-bl cells, read-out: Ratio CC50/EC50
MEASURED PROPERTY: selectivity ratio

[[record]]
smiles_record = "Cc1cc(/C=C/C#N)cc(C)c1Oc1ccc([N+](=O)[O-])c(Nc2ccc(C#N)cc2)c1"
observed_measurement = 4690


---

- Test system: Human immunodeficiency virus 1
- ASSAY EXPLANATION: Resistance index, ratio of EC50 for multidrug resistant HIV1 RTMDR to EC50 for wild type HIV1 NL4-3
- Type: functional
MEASURED PROPERTY: Ratio EC50

[[record]]
smiles_record = "C#Cc1cc(C)c(Oc2ccc(N)c(Nc3ccc(C#N)cc3)n2)c(C)c1"
system_tested = "Human immunodeficiency virus 1"
observed_measurement = 1.34

[[record]]
smiles_record = "Cc1cc(/C=C/C#N)cc(C)c1Oc1ccc(N)c(Nc2ccc(C#N)cc2)c1"
system_tested = "Human immunodeficiency virus 1"
observed_measurement = 3.25

[[record]]
smiles_record = "C=CCc1cc(C)c(Oc2ccc(N)c(Nc3ccc(C#N)cc3)n2)c(C)c1"
system_tested = "Human immunodeficiency virus 1"
observed_measurement = 2.23

[[record]]
smiles_record = "CC(=O)CCc1cc(C)c(Oc2ccc(N)c(Nc3ccc(C#N)cc3)n2)c(C)c1"
system_tested = "Human immunodeficiency virus 1"
observed_measurement = 1.64

[[record]]
smiles_record = "Cc1cc(/C=C/C#N)cc(C)c1Oc1cc(Nc2ccc(C#N)cc2)c(N)cc1N"
system_tested = "Human immunodeficiency virus 1"
observed_measurement = 0.47

